What interaction score was measured for each of the following?
EXPERIMENTAL TARGET: T1, 4H4001-bH
T1 chain: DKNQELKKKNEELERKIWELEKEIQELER
ASSAY: two-hybrid library CCNG1;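 also: natural log of median RNA to DNA barcode read ratio; higher means stronger binding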
Answers are plain numbers.

{"columns": ["BINDER", "interaction score"],
 "data": [
  ["DKNQELKKKIEELEREIWELKKKNQELER [4H3855-bH]", 1.02],
  ["DEIQELEKKIEELKRKNWELEKEIQELKR [4H370-bH]", 0.0634],
  ["DKNQELEKEIEELKRKNWELEKKIQELER [4H3189-bH]", -0.0803],
  ["DENQELEKKIEELKRKIWELKKENQELER [4H1387-bH]", 0.333],
  ["DKIQELKKEIEELERKNWELEKEIQELKR [4H2610-bH]", 0.47],
  ["DENQELEKENEELERKIWELKKEIQELER [4H1193-bH]", 0.425],
  ["DKNQELEKEIEELERKIWELEKKNQELKR [4H3112-bH]", 0.971],
  ["DKIQELEKKNEELEREIWELKKEIQELKR [4H2442-bH]", -0.244]
]}

Need interaction score for each of these binders.
1. DKNQELKKKNEELERKIWELEKEIQELER [4H4001-bH]
2. DEIQELEKKIEELKREIWELKKENQELER [4H331-bH]
3. DKNQELEKKIEELKRKIWELEKENQELER [4H3427-bH]
4. DKNQELEKKIEELERENWELKKEIQELKR [4H3354-bH]

(A)
1. -0.117
2. 0.891
3. 0.717
4. -0.37
